Test system: Human immunodeficiency virus 1
Experiment: Antiviral activity against HIV1 LAI with RT L100I mutation in MT4 cells by EGFP based replication assay
Format: functional, organism-based
Settings: Human immunodeficiency virus 1, LAI
Let's look at some compounds and their measured pEC50.
Lab note: report pEC50 as minus log10 of the concentration in molar units, number only.

Use the examples below as a reference point.
{"Compound": "CCc1cc(/C=C/C#N)cc(C)c1Nc1ccnc(Nc2ccc(C#N)cc2)n1", "pEC50": 9.05}
{"Compound": "N#C/C=C/c1ccc(Nc2ccnc(Nc3ccc(C#N)cc3)n2)cc1", "pEC50": 6.23}

Req: Please report the recorded pEC50 for Cc1cc(/C=C/C#N)ccc1Nc1ccnc(Nc2ccc(C#N)cc2)n1 .
Resp: 8.04

Req: Okay, and CC(C)Nc1cccnc1N1CCN(C(=O)c2cc3cc(NS(C)(=O)=O)ccc3[nH]2)CC1 [DELAVIRDINE] ?
Resp: 5.02

Req: Also Cc1cc(/C=C/C#N)cc(C)c1Oc1ccnc(Nc2ccc(C#N)cc2)n1 ?
Resp: 9.22

Req: Also Cc1cc(/C=C/C#N)cc(C(C)C)c1Nc1ccnc(Nc2ccc(C#N)cc2)n1 ?
Resp: 8.51

Req: Follow-up entry: Cc1cc(/C=C/C#N)ccc1N(C)c1ccnc(Nc2ccc(C#N)cc2)n1
Resp: 8.60

Req: Record: Cc1cc(/C=C/C#N)cc(C)c1Nc1ccnc(Nc2ccc(C#N)cc2)n1 [RILPIVIRINE]
Resp: 9.30

Req: Check COc1cc(/C=C/C#N)cc(C)c1Nc1ccnc(Nc2ccc(C#N)cc2)n1 too.
Resp: 9.30

Req: Now consider Cc1cc(/C=C/C#N)cc(Cl)c1Nc1ccnc(Nc2ccc(C#N)cc2)n1 and answer again.
Resp: 9.40

---

# maps each entry to its CC50 at 72 h
Test: Cytotoxicity against human MT4 cells after 3 days by EGFP based replication assay
Type: cell-based
Provide only the numeric value, understood in µM.

{"Molecule": "Cc1cc(/C=C/C#N)ccc1N(C)c1ccnc(Nc2ccc(C#N)cc2)n1", "Reading Unit": "µM", "CC50 at 72 h": 11.6}
{"Molecule": "Cc1cc(/C=C/C#N)cc(Cl)c1Nc1ccnc(Nc2ccc(C#N)cc2)n1", "Reading Unit": "µM", "CC50 at 72 h": 2.61}
{"Molecule": "CCc1cc(/C=C/C#N)cc(C)c1Nc1ccnc(Nc2ccc(C#N)cc2)n1", "Reading Unit": "µM", "CC50 at 72 h": 2.55}
{"Molecule": "Cc1cc(/C=C/C#N)cc(C)c1Nc1ccnc(Nc2ccc(C#N)cc2)n1 [RILPIVIRINE]", "Reading Unit": "µM", "CC50 at 72 h": 2}
{"Molecule": "Cc1ccnc2c1NC(=O)c1cccnc1N2C1CC1 [NEVIRAPINE]", "Reading Unit": "µM", "CC50 at 72 h": 31.6}
{"Molecule": "CC(C)Nc1cccnc1N1CCN(C(=O)c2cc3cc(NS(C)(=O)=O)ccc3[nH]2)CC1 [DELAVIRDINE]", "Reading Unit": "µM", "CC50 at 72 h": 67.2}
{"Molecule": "Cc1cc(/C=C/C#N)cc(C(C)C)c1Nc1ccnc(Nc2ccc(C#N)cc2)n1", "Reading Unit": "µM", "CC50 at 72 h": 11.8}
{"Molecule": "O=C1Nc2ccc(Cl)cc2C(C#CC2CC2)(C(F)(F)F)O1 (single isomer, unassigned) [EFAVIRENZ]", "Reading Unit": "µM", "CC50 at 72 h": 32.3}

Req: If you can, please state the reported CC50 at 72 h value of COc1cc(/C=C/C#N)cc(C)c1Nc1ccnc(Nc2ccc(C#N)cc2)n1 .
Resp: 0.633

Req: Same read-out for COc1cc(/C=C/C#N)cc(Cl)c1Nc1ccnc(Nc2ccc(C#N)cc2)n1 ?
Resp: 0.398

---

Assay: Half life in Beagle dog at 10 mg/kg, po after 23 hrs
Assay type: ADME, organism-based, Canis lupus familiaris
Set-up: dose 10 mg/kg, route oral
Details: in vivo
Readout: half-life (h)
Give the quantity in h, number only.

{"Compound": "Cc1cc(/C=C/C#N)cc(Cl)c1Nc1ccnc(Nc2ccc(C#N)cc2)n1", "Reading Unit": "h", "Endpoint Result": 14.5}
{"Compound": "Cc1cc(/C=C/C#N)cc(C)c1Nc1ccnc(Nc2ccc(C#N)cc2)n1 [RILPIVIRINE]", "Reading Unit": "h", "Endpoint Result": 23}

Now turn to the next compound.
Req: Which half-life value belongs to COc1cc(/C=C/C#N)cc(Cl)c1Nc1ccnc(Nc2ccc(C#N)cc2)n1 ?
Resp: 14.5

---

remaining at 0.25 h values, listed per item
Experiment: Metabolic stability in rat liver microsomes after 15 mins
Assay type: ADME, Microsome
Details: read-out: Stability
Use % as the unit, but write only the number.

Check out these entries, answers already filled in.
{"Compound Smiles": "COc1cc(/C=C/C#N)cc(Cl)c1Nc1ccnc(Nc2ccc(C#N)cc2)n1", "Endpoint Result": 53}
{"Compound Smiles": "Cc1cc(/C=C/C#N)cc(Cl)c1Nc1ccnc(Nc2ccc(C#N)cc2)n1", "Endpoint Result": 72}

Kindly review the next compound as well.
Req: Can you share its remaining at 0.25 h? I mean this compound: Cc1cc(/C=C/C#N)cc(C)c1Nc1ccnc(Nc2ccc(C#N)cc2)n1
Resp: 73

---

Here, each record is paired with measured pEC50 data.
Test system: Human immunodeficiency virus 1
Experiment: Antiviral activity against HIV1 LAI with RT Y188L mutation in MT4 cells by EGFP based replication assay
Type: functional, organism-based
Conditions: Human immunodeficiency virus 1, LAI
Answer as the number alone; pEC50 is minus log10 of concentration in mol/L.

Sample answers from the record:
{"Compound": "Cc1ccnc2c1NC(=O)c1cccnc1N2C1CC1 [NEVIRAPINE]", "Endpoint Result": 5.23}
{"Compound": "COc1cc(/C=C/C#N)cc(Cl)c1Nc1ccnc(Nc2ccc(C#N)cc2)n1", "Endpoint Result": 8.60}
{"Compound": "CC(C)Nc1cccnc1N1CCN(C(=O)c2cc3cc(NS(C)(=O)=O)ccc3[nH]2)CC1 [DELAVIRDINE]", "Endpoint Result": 5.99}
{"Compound": "Cc1cc(/C=C\\C#N)cc(C)c1Sc1ccnc(Nc2ccc(C#N)cc2)n1", "Endpoint Result": 8.55}
{"Compound": "COc1cc(/C=C/C#N)cc(C)c1Nc1ccnc(Nc2ccc(C#N)cc2)n1", "Endpoint Result": 9.05}

Req: Requested read-out pEC50, target or system Human immunodeficiency virus 1, entry Cc1cc(/C=C/C#N)cc(C)c1Nc1ccnc(Nc2ccc(C#N)cc2)n1 [RILPIVIRINE]
Resp: 8.92

Req: Repeat with Cc1cc(/C=C/C#N)cc(Cl)c1Nc1ccnc(Nc2ccc(C#N)cc2)n1
Resp: 8.64

Req: Next compound: Cc1cc(/C=C/C#N)ccc1Nc1ccnc(Nc2ccc(C#N)cc2)n1
Resp: 7.36

Req: Entry O=C1Nc2ccc(Cl)cc2C(C#CC2CC2)(C(F)(F)F)O1 (single isomer, unassigned) [EFAVIRENZ] please
Resp: 7.26

---

System: Human immunodeficiency virus 1
Test: Antiviral activity against HIV1 LAI with RT L100I mutation in MT4 cells by EGFP based replication assay
Format: functional, organism-based
Conditions: Human immunodeficiency virus 1, LAI
Reported values of EC50 for individual entries
Numeric answer only, unit nM assumed.

Solved entries:
{"Compound": "O=C1Nc2ccc(Cl)cc2C(C#CC2CC2)(C(F)(F)F)O1 (single isomer, unassigned) [EFAVIRENZ]", "Reading Unit": "nM", "Endpoint Result": 31}
{"Compound": "COc1cc(/C=C/C#N)cc(Cl)c1Nc1ccnc(Nc2ccc(C#N)cc2)n1", "Reading Unit": "nM", "Endpoint Result": 0.2}

# next compound below
Req: // lookup EC50 for Cc1cc(/C=C\C#N)cc(C)c1Sc1ccnc(Nc2ccc(C#N)cc2)n1
Resp: 2.6

---

Test system: Human immunodeficiency virus 1
Assay: Antiviral activity against HIV1 LAI with RT L100I and K103N mutation in MT4 cells by EGFP based replication assay
Format: functional, organism-based
Settings: Human immunodeficiency virus 1, LAI
pEC50: recorded values
Friendly reminder that pEC50 comes from taking -log10 of the concentration in mol/L.

Some solved entries appear below for comparison.
{"Molecule": "COc1cc(/C=C/C#N)cc(Cl)c1Nc1ccnc(Nc2ccc(C#N)cc2)n1", "Target Under Test": "Human immunodeficiency virus 1", "Endpoint Result": 7.80}
{"Molecule": "Cc1cc(/C=C/C#N)cc(C)c1Nc1ccnc(Nc2ccc(C#N)cc2)n1 [RILPIVIRINE]", "Target Under Test": "Human immunodeficiency virus 1", "Endpoint Result": 8.12}
{"Molecule": "CCc1cc(/C=C/C#N)cc(C)c1Nc1ccnc(Nc2ccc(C#N)cc2)n1", "Target Under Test": "Human immunodeficiency virus 1", "Endpoint Result": 8.09}
{"Molecule": "Cc1cc(/C=C\\C#N)cc(C)c1Sc1ccnc(Nc2ccc(C#N)cc2)n1", "Target Under Test": "Human immunodeficiency virus 1", "Endpoint Result": 7.10}
{"Molecule": "N#C/C=C/c1ccc(Nc2ccnc(Nc3ccc(C#N)cc3)n2)cc1", "Target Under Test": "Human immunodeficiency virus 1", "Endpoint Result": 5.19}
{"Molecule": "Cc1cc(/C=C/C#N)ccc1N(C)c1ccnc(Nc2ccc(C#N)cc2)n1", "Target Under Test": "Human immunodeficiency virus 1", "Endpoint Result": 6.98}
{"Molecule": "COc1cc(/C=C/C#N)cc(C)c1Nc1ccnc(Nc2ccc(C#N)cc2)n1", "Target Under Test": "Human immunodeficiency virus 1", "Endpoint Result": 7.68}
{"Molecule": "Cc1cc(/C=C/C#N)cc(Cl)c1Nc1ccnc(Nc2ccc(C#N)cc2)n1", "Target Under Test": "Human immunodeficiency virus 1", "Endpoint Result": 8.18}

Req: // query pEC50 value for entry Cc1cc(/C=C/C#N)cc(C)c1Oc1ccnc(Nc2ccc(C#N)cc2)n1
Resp: 8.43

Req: Next up: CC(C)Nc1cccnc1N1CCN(C(=O)c2cc3cc(NS(C)(=O)=O)ccc3[nH]2)CC1 [DELAVIRDINE]
Resp: 4.69

Req: Another molecule to look at: O=C1Nc2ccc(Cl)cc2C(C#CC2CC2)(C(F)(F)F)O1 (single isomer, unassigned) [EFAVIRENZ]
Resp: 5.84

Req: Also need Cc1cc(/C=C/C#N)ccc1Nc1ccnc(Nc2ccc(C#N)cc2)n1 , thanks.
Resp: 6.32

Req: Okay, and Cc1cc(/C=C/C#N)cc(C(C)C)c1Nc1ccnc(Nc2ccc(C#N)cc2)n1 ?
Resp: 7.42

Req: Next up: Cc1ccnc2c1NC(=O)c1cccnc1N2C1CC1 [NEVIRAPINE]
Resp: 5.45

Value source: ChEMBL document CHEMBL1146363
